Listed below: potentiation values for each entry.
System name: Transient receptor potential cation channel subfamily V member 1 (Homo sapiens) (UniProt Q8NER1)
Sequence (Q8NER1 whole entry, looked up): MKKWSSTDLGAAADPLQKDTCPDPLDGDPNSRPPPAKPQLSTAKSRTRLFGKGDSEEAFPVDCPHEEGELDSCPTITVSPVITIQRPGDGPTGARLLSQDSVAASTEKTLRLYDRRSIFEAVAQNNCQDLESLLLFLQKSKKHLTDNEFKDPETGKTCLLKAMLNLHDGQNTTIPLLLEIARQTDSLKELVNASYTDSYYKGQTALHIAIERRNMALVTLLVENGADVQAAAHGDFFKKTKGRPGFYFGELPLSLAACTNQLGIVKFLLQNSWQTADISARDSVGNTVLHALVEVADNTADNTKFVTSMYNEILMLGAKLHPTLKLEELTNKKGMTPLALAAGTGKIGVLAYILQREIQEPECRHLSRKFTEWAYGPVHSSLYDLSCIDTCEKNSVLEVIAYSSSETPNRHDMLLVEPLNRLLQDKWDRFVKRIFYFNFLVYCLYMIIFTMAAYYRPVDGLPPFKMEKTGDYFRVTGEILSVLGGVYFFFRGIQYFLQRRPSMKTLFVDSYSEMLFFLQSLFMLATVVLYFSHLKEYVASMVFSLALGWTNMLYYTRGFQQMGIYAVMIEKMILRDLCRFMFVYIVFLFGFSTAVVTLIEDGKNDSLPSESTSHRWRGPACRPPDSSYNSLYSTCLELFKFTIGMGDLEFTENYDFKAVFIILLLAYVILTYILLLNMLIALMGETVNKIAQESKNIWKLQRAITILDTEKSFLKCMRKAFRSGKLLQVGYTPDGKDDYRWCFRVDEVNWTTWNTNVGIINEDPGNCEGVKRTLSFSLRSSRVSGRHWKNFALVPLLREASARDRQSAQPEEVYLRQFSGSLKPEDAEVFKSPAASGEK
Method notes: HTS Assay for Compounds that Act as Potentiators of the Vanilloid Receptor 1; also: 0% is about no effect
Experimental conditions: TRPV1-expressing cells, Fluo-8 calcium influx, capsaicin EC20 potentiation; at 8.33 µM; stronger effect = higher value
Hit rate of the full screen: of about 320,000 compounds, about 55 (0.02%) were called active. Another 3% or so got no clear call; they are omitted. The list comes from a sample in which actives are over-represented; it also holds close analogues and randomly drawn compounds.
Form entry: value (%) — number only.

Sample records with potentiation:
>>> quantitative_result("Cc1cccc(NS(=O)(=O)c2cccc(C(=O)NNC(=O)c3ccccc3O)c2)c1")
-12.6
>>> quantitative_result("CN(C)C(CNC(=O)c1ccc(OCc2cn3ccccc3n2)cc1)c1ccco1 (stereo not given)")
-3.83

**Q:** Param item = O=C(COc1ccccc1Cl)N1N=C(c2cccs2)CC1c1ccco1 (stereo not given) ; retrieve measured potentiation.
**A:** -9.15

**Q:** For CCC1(C)NC(=O)N(CC(=O)N2CCN(c3cccc(Cl)c3)CC2)C1=O (stereo not given) then?
**A:** -16.1

**Q:** Another compound to check: CCN(CC)CCN1C(=O)C(=O)/C(=C(/O)c2cnn(-c3ccccc3)c2C)C1c1cccs1 (stereo not given)
**A:** -0.404

**Q:** Same thing, different compound: CCOc1cccc2cc(C(=O)OCC(=O)Nc3c(C)cccc3CC)c(=O)oc12
**A:** -5.16

**Q:** Same for O=C(c1cc2ccccc2o1)N1CCN(S(=O)(=O)c2ccc(Cl)s2)CC1
**A:** -15.9

**Q:** Request: O=C(CSc1nc2[nH]c(=O)[nH]c(=O)c2s1)Nc1cccc(F)c1
**A:** 19.7

**Q:** Next record, please: O=C(Nc1cccc2cccnc12)C(F)(F)F
**A:** 13.4

**Q:** Now consider CCCCn1c(SCC(=O)N2CCCC2=O)nc2cc(S(N)(=O)=O)ccc21 and answer again.
**A:** -9.34

====

The molecules listed here are annotated with their potentiation.
System name: Transient receptor potential cation channel subfamily V member 1 (Homo sapiens)
Method notes: HTS Assay for Compounds that Act as Potentiators of the Vanilloid Receptor 1; also: 0% is about no effect
Experimental conditions: TRPV1-expressing cells, Fluo-8 calcium influx, capsaicin EC20 potentiation; at 8.33 µM; stronger effect = higher value
Out of some 320,000 compounds screened, about 55 (0.02%) were called active. Another 3% or so got no clear call; they are omitted. The sample as a whole holds a higher share of actives than the screen did.
Field format: number, assumed %, no unit text.

Consider the reported potentiation for these molecules:
>>> quantitative_result("Nc1cc(N)nc(SCC(=O)Nc2cccc(S(=O)(=O)N3CCCCC3)c2)n1")
0.644
>>> quantitative_result("COc1ccc(C)cc1NC(=O)CN1c2cccc3cccc(c23)S1(=O)=O")
-17.5
>>> quantitative_result("CCOC(=O)c1sc(=NC(=O)/C=C/c2cccs2)n(C)c1C")
-3.16

**Q:** Value lookup for potentiation; key = COc1ccc(-c2cc(C(=O)NCCCN3CCCC3=O)c3ccccc3n2)cc1OC
**A:** -7.67

**Q:** What would you report for CC(=O)c1sc(NC(=O)CCN2C(=O)C3CC=CCC3C2=O)nc1-c1ccccc1 (stereo not given) ?
**A:** -6.85

**Q:** What do we get for CC1(C)O[C@@H]2[C@H](O1)[C@@H](COS(=O)(=O)O)O[C@H]2n1cnc2c(=O)[nH]cnc21 ?
**A:** 8.79

**Q:** Next up: O=S(=O)(NCCc1ccccn1)c1cc(Cl)cc(Cl)c1O
**A:** 2.4

**Q:** O=C(COC(=O)CNC(=O)C1CCCCC1)Nc1cccc(F)c1 , same question.
**A:** -7.91

**Q:** Try this molecule next: O=C(NCCC1=CCCCC1)c1ccc(-n2cncn2)cc1
**A:** -28.9

**Q:** Okay, and Cc1noc(C)c1COc1ccc(C(=O)NCCOc2ccccc2)cc1 ?
**A:** -13.4
